Measured cell viability by item
system: OCI-AML2; test: cell viability relative to vehicle control; higher = less cytotoxic; details: 10 µM; SRSF2 genotype: wt/wt;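 also: after 48 h exposure read by CellTiter-Glo luminescence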
Structures can show the parent of a compound that is named as a salt.
attributeMeasured: cell viability (%)

* CCCCCOC(=O)Nc1nc(=O)n([C@@H]2O[C@H](C)[C@@H](O)[C@H]2O)cc1F | 99.2
* COc1ccc(Cn2c3ncnc4c(ncn4Cc4ccc(OC)cc4)c-3nc2=O)cc1 | 5.63
* COc1cccc(CCc2ccccc2OCC(CN(C)C)OC(=O)CCC(=O)O)c1 (stereo not drawn) [Sarpogrelate hydrochloride] | 100
* Cc1cc(C)nc(NS(=O)(=O)c2ccc(N)cc2)n1 [Sulfamethazine Sodium Salt] | 113
* O=c1cc(-c2ccc(O)c(O)c2)oc2cc(O)c([C@@H]3O[C@H](CO)[C@@H](O)[C@H](O)[C@H]3O)c(O)c12 | 88.7
* COc1cc2/c(=N/c3ccc(Br)cc3F)nc[nH]c2cc1OCC1CCN(C)CC1 [Vandetanib (ZD6474)] | 75.4
* COC(=O)CC[C@H](NC(=O)[C@H](CC(=O)OC)NC(=O)OCc1ccccc1)C(=O)N[C@H](C(=O)N[C@@H](CC(=O)OC)C(=O)CF)C(C)C | 103
* CC(C)(C)S(=O)(=O)c1ccc2nccc(Nc3n[nH]c4ccc(F)cc34)c2c1 | 86.2

----------
system: K562; assay: cell viability relative to vehicle control; higher = less cytotoxic; settings: 10 µM; SRSF2 genotype: SRSF2 wt/wt
Counter-ions that a name gives are not always drawn.
attributeMeasured: cell viability

- COC(=O)N(C)c1c(N)nc(-c2nn(Cc3ccccc3F)c3ncccc23)nc1N [Riociguat (BAY 63-2521)]: 82.6%
- CC1(C)[C@@H](OC(=O)CCC(=O)O)CC[C@]2(C)[C@H]3C(=O)C=C4[C@@H]5C[C@@](C)(C(=O)O)CC[C@]5(C)CC[C@@]4(C)[C@]3(C)CC[C@@H]12 [Carbenoxolone disodiuM]: 88%
- O=c1[nH]cnc2c1ncn2[C@@H]1O[C@H](CO)[C@@H](O)[C@H]1O [Inosine]: 121%
- COCCOc1nc(-c2ccc(Cl)c(Cl)c2)n(-c2ccc(NC(=O)CCl)cc2)n1 [MI-2 (MALT1 inhibitor)]: 6.61%
- O=C(O)[C@H]1CSC(c2nc3ccc(O)cc3s2)=N1 [D-Luciferin]: 92.3%
- CCCCc1ccc(O)cc1O [4-Butylresorcinol]: 91.2%
- CCN(CC)CCNC(=O)c1c(C)[nH]c(/C=C2\C(=O)Nc3ccc(F)cc32)c1C [Sunitinib Malate]: 12.7%
- COc1cc(-c2cn(C)c(=O)c3cnccc23)cc(OC)c1CN(C)C: 105%
- NC(=O)c1ccc(I)c([N+](=O)[O-])c1 [Iniparib (BSI-201)]: 113%
- O=C(O)c1ccco1 [2-Furoic acid]: 103%
- CN1CCC(c2c(O)cc(O)c3c(=O)cc(-c4ccccc4Cl)oc23)C(O)C1 (configuration not stated) [Flavopiridol (Alvocidib) HCl]: 7.9%
- COc1ccc2c(c1)c(CC(=O)O)c(C)n2C(=O)c1ccc(Cl)cc1 [Indometacin Sodium]: 101%
- Nc1nc(Cl)nc2c1ncn2[C@H]1C[C@H](O)[C@@H](CO)O1 [Cladribine]: 101%
- C[C@H]1[C@@H](O)O[C@@H]2O[C@@]3(C)CC[C@H]4[C@H](C)CC[C@@H]1[C@@]24OO3 [Dihydroartemisinin (DHA)]: 28.8%
- O=C(CSc1nc2c(c(=O)n1-c1ccccc1)SCC2)Nc1ccc(-c2ccccc2)cn1: 92.7%
- CC1(C)S[C@@H]2[C@H](NC(=O)Cc3ccccc3)C(=O)N2[C@H]1C(=O)O.CCN(CC)CCOC(=O)c1ccc(N)cc1 [Penicillin G Procaine]: 101%
- O=S(=O)(O)CCS [Mesna (Uromitexan, Mesnex)]: 103%
- O=C[C@H](O)[C@@H](O)[C@H](O[C@H]1O[C@H](CO)[C@@H](O[C@H]2O[C@H](CO)[C@@H](O[C@H]3O[C@H](CO)[C@@H](O[C@H]4O[C@H](CO)[C@@H](O)[C@H](O)[C@H]4O)[C@H](O)[C@H]3O)[C@H](O)[C@H]2O)[C@H](O)[C@H]1O)[C@H](O)CO [Maltopentaose]: 103%
- N=c1ccn2c(n1)O[C@H]1[C@H](O)[C@@H](CO)O[C@H]12 [Cyclocytidine HCl]: 101%
- Nc1cccc2c1C(=O)N(C1CCC(=O)NC1=O)C2=O (configuration not stated) [Pomalidomide]: 88%
- N#Cc1c(Oc2ccc(F)c(NC(=O)Cc3cccc(C(F)(F)F)c3)c2)ccc2nc(NC(=O)C3CC3)sc12: 19%
- CCOC(=O)/C=C/c1ccc(O)c(O)c1 [Ethyl caffeate]: 95%
- NC(=O)c1cc(F)cc2c1C(=O)N(C1CCN(C3CCC(F)(F)CC3)CC1)C2: 95.7%
- CN(C)CCCC1(c2ccc(F)cc2)OCc2cc(C#N)ccc21 (configuration not stated) [Citalopram HBr]: 92.5%
- COc1cc(OC)c2c(=O)[nH]c(-c3cc(C)c(OCCO)c(C)c3)nc2c1: 87.5%
- CC(C)NC[C@@H](C(=O)N1CCN(c2ncnc3c2[C@H](C)C[C@H]3O)CC1)c1ccc(Cl)cc1 [Ipatasertib (GDC-0068)]: 86.3%
- O=C(O)c1ccccc1C(=O)Nc1ccc(-c2ccccc2)cc1 [Kartogenin]: 103%
- COc1ccc2[nH]c([S+]([O-])Cc3ncc(C)c(OC)c3C)nc2c1 (configuration not stated) [Omeprazole (Prilosec)]: 95.6%
- CC(C)c1cnn2c(NCc3ccccc3)cc(NCCCCCCN)nc12: 101%
- O=C1NC(=O)[C@@H](c2cn3c4c(cccc24)CCC3)[C@@H]1c1c[nH]c2ccccc12 [ARQ 197 (Tivantinib)]: 37%
- CC[C@@H](CO)NCCN[C@@H](CC)CO [Ethambutol HCl]: 98.7%
- CC1=C[C@H](O)CC(C)(C)[C@H]1/C=C/C(C)=C/C=C/C(C)=C/C=C/C=C(C)/C=C/C=C(C)/C=C/C1=C(C)C[C@@H](O)CC1(C)C [lutein]: 95.8%
